# credit: ChEMBL document CHEMBL1201862

Test system: 786-0
assayRemarks: NCI tumour cell line growth inhibition, 48 h
Active and inactive are the calls of the source. No stated cut-off is given here; in the data, active = GI50 up to about 1.1 µM and inactive = higher.
Outcomes: YES (active), NO (inactive)

compound: COc1ccc(OC/C(N)=N/NC(=O)c2ccncc2)cc1
classLabel: NO

compound: Cc1c2ccnc(C(=O)NCCN(C)C)c2cc2c3cc(O)ccc3n(C)c12
classLabel: YES

compound: COC(=O)Cc1c([C@@H]2Nc3ccccc3[C@H]2CC(=O)OC)[nH]c2ccccc12
classLabel: NO

compound: CNC(=O)N(C)C(=O)c1ccccc1C(=O)N(C)C(=O)NC
classLabel: NO

compound: CCOC(=O)/C=C(/OCC)[C@@H]1C(C(=O)c2ccc(Cl)cc2)[C@@H]1/C(=C\C(=O)OCC)OCC (stereo partly drawn)
classLabel: NO

compound: COc1cc(C(C)(C)C)c(OC(=O)/C=C/C(=O)O/C=C/[N+](=O)[O-])c(C(C)(C)C)c1
classLabel: NO

compound: O=c1[nH]nc(Cn2c3ccc(Br)cc3c3nc4ccccc4nc32)n1C1CCCCC1
classLabel: NO

compound: C[C@]12Cc3conc3C(O)=C1CC[C@@H]1C2CC[C@@]2(C)C1CC[C@@H]2O (stereo partly drawn)
classLabel: NO
